molecular target: T1, human ILT2 (LILRB1) expressed at the surface of transfected cells (human, UniProt Q8NHL6 24-650); experiment: flow cytometry, CHO-ILT2 cells
T1 construct: also called CHO-ILT2; CHO ILT2 cell line
T1 sequence (Q8NHL6 24-650): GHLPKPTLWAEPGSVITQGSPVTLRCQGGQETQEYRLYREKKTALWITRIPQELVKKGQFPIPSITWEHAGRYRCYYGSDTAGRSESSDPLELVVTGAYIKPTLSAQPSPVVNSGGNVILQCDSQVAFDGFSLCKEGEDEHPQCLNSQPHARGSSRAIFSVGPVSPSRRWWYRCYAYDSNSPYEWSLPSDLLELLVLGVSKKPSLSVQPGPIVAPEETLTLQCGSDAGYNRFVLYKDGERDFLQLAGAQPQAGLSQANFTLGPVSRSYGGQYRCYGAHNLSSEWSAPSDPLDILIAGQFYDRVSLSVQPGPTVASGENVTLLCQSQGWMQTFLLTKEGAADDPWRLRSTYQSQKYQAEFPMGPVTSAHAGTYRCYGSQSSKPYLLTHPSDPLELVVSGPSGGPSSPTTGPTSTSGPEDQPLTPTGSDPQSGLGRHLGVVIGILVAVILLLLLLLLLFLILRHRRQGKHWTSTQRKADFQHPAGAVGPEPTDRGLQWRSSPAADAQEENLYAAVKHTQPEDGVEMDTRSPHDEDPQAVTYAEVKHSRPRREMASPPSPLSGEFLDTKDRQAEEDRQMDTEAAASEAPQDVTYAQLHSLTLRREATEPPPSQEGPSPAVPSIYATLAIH
measurementKind: EC50 (µg/mL)
Provide only the numeric value, understood in µg/mL.

3H5 (antibody, human IgG1, V domains shown) VH: QVQLKESGPGLVAPSQSLSITCTVSGFSLTSYGVSWVRQPPGKGLEWLGVIWGDGSTNYHSALISRLSISKDNSKSQVFLKLNSLQTDDTATYYCAKPRWDDYAMDYWGQGTSVTVSS VL: DIQMTQTTSSLSASLGDRVTISCRASQDISNYLNWYQQKPDGTVKLLIYYTSRLHSGVPSRFSGSGSGTDYSLTISNLEQEDIATYFCQQGNTLWTFGGGTKLEIK    0.35

Problem: // query EC50 value for entry 26D8 (antibody, human IgG1, V domains shown) VH: QVQLQQSGAELVKPGASVKLSCKASGYTFTEHTIHWIKQRSGQGLEWIGWFYPGSGSMKYNEKFKDKATLTADKSSSTVYMELTRLTSEDSAVYFCARHTNWDFDYWGQGTTLTVSS VL: DIVLTQSPASLAVSLGQRATISCKASQSVDYGGDSYMNWYQQKPGQPPKLLIYAASNLESGIPARFSGSGSGTDLTLNIHPVEEDDAAMYYCQQSNEEPWTFGGGTKLEIK
Solution: 0.15

Problem: Now give it for 12D12 (antibody, human IgG1, V domains shown) VH: QVQLQQPGAELVKPGASVRMSCKASGYTFTSYWVHWVKQRPGQGLEWIGVIDPSDSYTSYNQNFKGKATLTVDTSSKTAYIHLSSLTSEDSAVYFCARGERYDGDYFAMDYWGQGTSVTVSS VL: DIVMTQSPASLSVSVGETVTITCRASENIYSNLAWYQQKQGKSPQLLVYAATNLADGVPSRFSGSRSGTQYSLKINSLQSEDFGTYYCQHFWNTPRTFGGGTKLEIK too.
Solution: 0.36

Problem: Now give it for 27H5 (antibody, human IgG1, V domains shown) VH: QVQLKESGPGLVAPSQSLSITCTVSGFSLTSYGVSWVRQPPGKGLEWLGVIWGDGNTNYHSALISRLSISKDNSKSQVFLKLNSLQTDDTATYYCARTNWDGWFAYWGQGTLVTVSA VL: DIVMTQSHKFMSTSVGDRVSITCKASQDVGTAVAWYQQKPGQSPKLLIYWASTRHTGVPDRFTGSGSGTDFTLTISNVQSEDLADYFCQQYRSYPLGTFGGGTKLEIK too.
Solution: 0.52

Problem: Now give it for 18E1 (antibody, human IgG1, V domains shown) VH: QVQLQQSGAELVKPGASVRLSCKASGYTFTAHTIHWVKQRSGQGLEWIGWLYPGSGSIKYNEKFKDKATLTADKSSSTVYMELSRLTSEDSAVYFCARHTNWDFDYWGQGTTLTVSS VL: NIVLTQSPASLAVSLGQRATISCKASQSVDYGGASYMNWYQQKPGQPPKLLIYAASNLESGIPARFSGSGSGTDLTLNIHPVEEEDAAMYYCQQSNEEPWTFGGGTKLEIK too.
Solution: 0.12

Problem: Now give it for 27C10 (antibody, human IgG1, V domains shown) VH: EVQLQESGPGLVKPSQSLSLTCSVTGYSITSGYYWNWIRQFPENKLEWMGYIRYDGSNNYNPSLNNRISITRDASKNQFFLKLNSVTTEDTATYYCARGWLLWFYAVDYWGQGTSVTVSS VL: DVVMTQTPLSLPVSLGDQASISCRSSQSIVHTNGNTYLEWYLQKSGQSPKLLIYKVSNRLSGVPDRFSGSGSGTDFTLKISRVEAEDLGIYYCFQGSHVPWTFGGGTKLEIK too.
Solution: 0.25
